This collection of values is drawn from ChEMBL document CHEMBL1201862.

- Tested on: KM-20L2
- assay text: NCI tumour cell line growth inhibition, 48 h
Activity calls are given as the source filed them. Rule as the data show it: active = GI50 up to about 1.1 µM and inactive = higher.
quantity measured: GI50

Known results for compounds:
compound	assayed system	GI50
COC1(C)C(=O)N2C1N(C(=O)OCc1ccccc1)CC2(C)C (centres undefined)	KM-20L2	> 100 µM (inactive)
CCCCCCc1cc2c(C)c(C)c(=O)oc2cc1OCCCOc1cc2oc(=O)c(C)c(C)c2cc1CCCCCC	KM-20L2	> 100 µM (inactive)

Form field GI50, entry "CC1(C)CCC(=O)c2c(O)ccc(O)c21" : 83.4 µM (inactive)

====

- System: COLO 205
- assay text: NCI tumour cell line growth inhibition, 48 h
Calls of active or inactive are those of the source. Rule as the data show it: active = GI50 up to about 1.1 µM and inactive = higher.
quantity measured: GI50

Known results for compounds:
> print(dat)
                                   compound       value.observed
1  C#CC(O)/C=C/C(O)CCCC(O)CC#CC(O)C#CC(O)CCCC(O)/C=C/CCCCCC(=O)CCCCCCCCCCCCCC(O)C(O)C#CC(=O)O (stereo not given)   > 50 µM (inactive)
2  CN(C)c1ccc(/C=C(\NC(=O)c2ccccc2)C(=O)NCC(=O)O)cc1  > 100 µM (inactive)

Form field GI50, entry OC1CC2CCC(C1)N2CCCN1c2ccccc2Sc2ccc(Cl)cc21 (stereo not given) : 1.77 µM (inactive)

Form field GI50, entry "O=C(N(O)c1ccccc1Cl)C(O)(c1ccccc1)c1ccccc1" : > 100 µM (inactive)

Form field GI50, entry N/N=C(\c1nc2ccc(Cl)cc2nc1O)C(O)c1ccc(Cl)c(Cl)c1 (stereo not given) : 88.3 µM (inactive)

====

- System: EKVX
- assay text: NCI tumour cell line growth inhibition, 48 h
Activity calls are given as the source filed them. No stated cut-off is given here; in the data, active = GI50 up to about 1.1 µM and inactive = higher.
quantity measured: GI50

Known results for compounds:
> print(dat)
                                    compound        value.observed
 1  O=C(O)C1CCCN1Cc1c[nH]c2ccccc12 (configuration not stated)   > 100 µM (inactive)
 2                      CCCCCCCCCCOC(=O)NCCC    25.9 µM (inactive)
 3  Cc1ccc(S(=O)(=O)C(C#N)c2nc3ccccc3nc2N2CCOCC2)cc1 (configuration not stated)   > 100 µM (inactive)
 4             CCCCC/C=C\C=C\CCCCCCCCC(=O)OC   > 100 µM (inactive)
 5  CC(C)C(C)C(C)(C)P(C)(C)=O (configuration not stated)   > 100 µM (inactive)
 6  C=C1CC2C(=O)N(c3ccccc3)C(=O)C2CC1n1[nH]c(=O)n(Cc2ccccc2)c1=O (configuration not stated)   > 100 µM (inactive)
 7  O=S(=O)(c1ccccc1)C(c1ccc2ccccc2n1)S(=O)(=O)c1ccccc1   > 100 µM (inactive)
 8  CC1(C)OCC(C2OC(OC(=O)c3ccc(C(F)(F)F)cc3)C3OC(C)(C)OC23)O1 (configuration not stated)  > 77.4 µM (inactive)
 9  O=C(N(O)c1ccccc1Cl)C(O)(c1ccccc1)c1ccccc1   > 100 µM (inactive)
10                    O=C(O)CSc1ccccc1C(=O)O   > 100 µM (inactive)

Form field GI50, entry "COc1cccc(/C=C2\CCCCCC2=O)c1" : > 100 µM (inactive)

Form field GI50, entry NC(=O)C(c1ccccc1)N1OC2C(=O)N(Cc3ccccc3)C(=O)C2C1c1cccc(Oc2ccc(Cl)cc2)c1 (configuration not stated) : 27.1 µM (inactive)

====

- Tested on: NCI-H23
- assay text: NCI tumour cell line growth inhibition, 48 h
Active and inactive are the calls of the source. No stated cut-off is given here; in the data, active = GI50 up to about 1.1 µM and inactive = higher. Square brackets hold non-standard residues; d marks the D form. Peptide text beside a SMILES is read from it. * marks the point of attachment. ξ: configuration not given here. Propanoyl(3-(4-MeO-Ph)) = COc1ccc(CCC(=O)*)cc1; Thr(3ξ) = CC(O)[C@H](N)C(=O)O; dNMeL = CN[C@H](CC(C)C)C(=O)O; ξLac = CC(O)C(=O)O
Your answer must be one of the following: 1 for active, 0 for inactive

These solved cases illustrate the format of a correct answer.
compound	discrete label
Cc1c(C)c2c(c(N)c1C#N)C(=O)N(O)C2=O	0
CC(C)NC(=O)OCc1c(COC(=O)NC(C)C)c(-c2ccc[n+](COC(=O)C3CC3)c2)n2c1CCC2	0
COc1cc([C@@H]2c3cc4c(cc3[C@@H](NC(=O)c3ccccc3)C3COC(=O)[C@@H]32)OCO4)cc(OC)c1O (stereo partly drawn)	0
CC1(C)C(O)C[C@@H](O)[C@@]2(C)C1CC[C@]1(C)C2C[C@@H](O)[C@@H]2C([C@@]3(C)CC[C@@H](C(C)(C)O)O3)CCC21C (stereo partly drawn)	0

Req: Dear all, I need the recorded test outcome for Cc1oc2c(C)c3oc(=O)cc(C)c3cc2c1CNC(=O)[C@@H]1OCCOCCOCCOCCOCCOC1C(=O)O (stereo partly drawn) , thank you.
Resp: 0

Req: Dear all, I need the recorded test outcome for CC[C@@]1(OC(=O)C(N)CCCCN)C(=O)OCc2c1cc1n(c2=O)Cc2cc3ccccc3nc2-1 (stereo partly drawn) , thank you.
Resp: 1

Req: Dear all, I need the recorded test outcome for COC(=O)[C@@H](NC(=O)[C@@H](CC(C)C)N(C)C(=O)[C@@H]1CCCN1C(=O)C(C)O)C(C)OC(=O)CCc1ccc(OC)cc1 (stereo partly drawn) (H-[ξLac]P[dNMeL][Thr(3ξ)](Propanoyl(3-(4-MeO-Ph)))-OMe) , thank you.
Resp: 0

Req: Dear all, I need the recorded test outcome for "Cc1ccc2nc3c(C(=O)NCCN(C)C)cccc3nc2c1" , thank you.
Resp: 0

====

- System: SR
- assay text: NCI tumour cell line growth inhibition, 48 h
Calls of active or inactive are those of the source. Cut-off read from the data, not from the text of the source: active = GI50 up to about 1.1 µM and inactive = higher.
Your answer must be one of the following: active, inactive

Req: Dear all, I need the recorded test outcome for "O=C(N(O)c1ccccc1Cl)C(O)(c1ccccc1)c1ccccc1" , thank you.
Resp: inactive

Req: Dear all, I need the recorded test outcome for "Cc1cc(C)cc(C(=N)c2ccccc2Cc2cccc3ccccc23)c1" , thank you.
Resp: inactive

====

- Tested on: OVCAR-5
- assay text: NCI tumour cell line growth inhibition, 48 h
Activity calls are given as the source filed them. Rule as the data show it: active = GI50 up to about 1.1 µM and inactive = higher.
Your answer must be one of the following: active, inactive

These solved cases illustrate the format of a correct answer.
> print(dat)
                                   molecule  assayed.system  discrete.label
1                Nc1nc(Cl)cc(NCC2(O)CCC2)n1         OVCAR-5        inactive
2  O=[N+]([O-])c1ccc(C[S+]([O-])Cc2ccccc2)cc1 (stereo unspecified)         OVCAR-5        inactive
3  O=C1C(Cl)=C(N2CCN(CCOCCO)CC2)C(=O)c2ncccc21         OVCAR-5        inactive
4   CCn1c(=O)c2nc(SC)sc2n(-c2ccc(C)cc2)c1=O         OVCAR-5        inactive
5  CCOc1ccc(/C=C2/C(=O)N/C(=N\C(C)=O)N2C)cc1         OVCAR-5        inactive

Shift focus to the following entry.
Req: Dear all, I need the recorded test outcome for "OCCNCN(CNCCO)c1nc(N(CNCCO)CNCCO)nc(N(CNCCO)CNCCO)n1" , thank you.
Resp: active

====

- System: HCT-116
- assay text: NCI tumour cell line growth inhibition, 48 h
Activity calls are given as the source filed them. Rule as the data show it: active = GI50 up to about 1.1 µM and inactive = higher.
Your answer must be one of the following: t (active), f (inactive)

These solved cases illustrate the format of a correct answer.
> print(dat)
                                   compound  discrete.label
1  Cc1cc(=O)oc2c1cc(OCC(=O)OCCN1CCCCC1)c1occ(C)c12               f
2                   c1cc(-c2cn3ccsc3n2)ccn1               f
3  CC(=O)OC1COC(Nn2c(=O)[nH]c3ccccc3c2=O)C(OC(C)=O)C1OC(C)=O (stereo unspecified)               f
4  COc1ccc2c(c1)c(=O)c1c(NCCN(C)C)ccc3nnn2c31               t
5      Cc1ccc2nc3c(C(=O)NCCN(C)C)cccc3nc2c1               f

Shift focus to the following entry.
Req: Dear all, I need the recorded test outcome for CC(=S)NC1C(Oc2ccc3c(C)cc(=O)oc3c2)OC(CO)C(O)C1O (stereo unspecified) , thank you.
Resp: f

====

- System: SNB-78
- assay text: NCI tumour cell line growth inhibition, 48 h
Calls of active or inactive are those of the source. Rule as the data show it: active = GI50 up to about 1.1 µM and inactive = higher.
Your answer must be one of the following: 1.0 for active, 0.0 for inactive

These solved cases illustrate the format of a correct answer.
> print(dat)
                                   compound  discrete.label
1  Cc1ccc(S(=O)(=O)C(C#N)c2nc3ccccc3nc2-n2cccn2)cc1 (stereo unspecified)             0.0
2  Nc1ccn([C@@H]2C=C(CO)[C@@H](O)[C@H]2O)c(=O)n1             0.0
3            C#CCn1c(=O)c2cccnc2n(CC#C)c1=O             0.0
4  O=C(O)C12C3C4C1C1C2C3C41I (stereo unspecified)             0.0
5  O=[N+]([O-])c1ccc(-c2noc(-c3ccccc3)c2C2=NCCN2)cc1             0.0

Req: Dear all, I need the recorded test outcome for "CC1=NN(C(=O)c2ccc(Cl)cc2)C(=O)/C1=C/c1cccc(O)c1" , thank you.
Resp: 0.0

Req: Dear all, I need the recorded test outcome for N/N=C(\c1nc2ccc(Cl)cc2nc1O)C(O)c1ccc(Cl)c(Cl)c1 (stereo unspecified) , thank you.
Resp: 0.0

Req: Dear all, I need the recorded test outcome for Cc1ccc(S(=O)(=O)C(C#N)c2nc3ccccc3nc2N2CCOCC2)cc1 (stereo unspecified) , thank you.
Resp: 0.0

Req: Dear all, I need the recorded test outcome for "CSc1ccc2c(cc1=O)[C@@H](NC(=O)c1cc(O)c(O)c(O)c1)CCc1cc(O)c(O)c(O)c1-2" , thank you.
Resp: 0.0

Req: Dear all, I need the recorded test outcome for "O=Cc1c[nH]c2c(=O)[nH]cnc12" , thank you.
Resp: 0.0

Req: Dear all, I need the recorded test outcome for "CN(C)CCNC(=O)c1cccc2cc3ccc4ccccc4c3nc12" , thank you.
Resp: 1.0
